Tgt: D(3) dopamine receptor (Homo sapiens)
Sequence (P35462 whole entry): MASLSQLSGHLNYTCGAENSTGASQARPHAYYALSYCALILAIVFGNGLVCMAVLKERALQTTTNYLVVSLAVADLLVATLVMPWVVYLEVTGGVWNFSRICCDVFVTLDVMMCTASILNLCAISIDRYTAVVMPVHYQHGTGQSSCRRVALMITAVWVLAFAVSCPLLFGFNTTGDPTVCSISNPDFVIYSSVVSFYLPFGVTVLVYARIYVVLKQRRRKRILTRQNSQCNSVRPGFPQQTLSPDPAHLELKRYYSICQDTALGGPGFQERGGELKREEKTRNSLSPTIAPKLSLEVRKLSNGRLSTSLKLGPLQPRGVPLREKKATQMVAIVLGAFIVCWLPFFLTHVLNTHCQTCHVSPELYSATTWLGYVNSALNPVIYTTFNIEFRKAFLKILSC
Test Name: Selectivity interaction (NIBR principial panel (12 GPCRs, 3 nuclear receptors, 3 transporters, and 7 other enzymes)) EUB0000253b DRD3
Result Type: IC50 (µM)
Respond with the bare value in µM.

Record "Cc1c(Nc2ccc(S(=O)(=O)N3CCN(C)CC3)cc2F)nc2ccc(-c3cnn(C4CC4)c3)cn2c1=O" ; system D(3) dopamine receptor (Homo sapiens); IC50 = 3.5

---

Tgt: Stromelysin-2 (Homo sapiens, UniProt P09238)
Sequence (P09238 whole entry): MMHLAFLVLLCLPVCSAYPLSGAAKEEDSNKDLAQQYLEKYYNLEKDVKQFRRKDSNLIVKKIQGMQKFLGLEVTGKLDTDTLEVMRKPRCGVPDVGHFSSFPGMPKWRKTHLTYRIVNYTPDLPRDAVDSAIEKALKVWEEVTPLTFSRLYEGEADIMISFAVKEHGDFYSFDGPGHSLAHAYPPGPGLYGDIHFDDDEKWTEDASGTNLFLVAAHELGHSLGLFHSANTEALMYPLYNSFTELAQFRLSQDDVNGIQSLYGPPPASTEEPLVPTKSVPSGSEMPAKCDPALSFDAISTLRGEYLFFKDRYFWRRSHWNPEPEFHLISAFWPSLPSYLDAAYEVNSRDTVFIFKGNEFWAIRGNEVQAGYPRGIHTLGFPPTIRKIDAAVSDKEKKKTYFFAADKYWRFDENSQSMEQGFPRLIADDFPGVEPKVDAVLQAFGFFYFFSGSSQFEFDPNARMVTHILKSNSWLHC
Test Name: Selectivity interaction (Lead profiling screen (Eurofins, enzymes, transporters, GPCRs, ion chanels)) EUB0000728a MMP10
Result Type: pIC50
Scale: negative log10 of molar concentration, which is what pIC50 denotes.

The measured pIC50 associated with O=C(O)[C@H]1[C@H](Cn2nnc3ccccc3c2=O)CC[C@@H]1C(=O)c1ccc(OCCC2CCOCC2)cc1 [BAY-7598] reads 7.89

---

Tgt: Adenosine receptor A2b (Homo sapiens)
Sequence (P29275 whole entry): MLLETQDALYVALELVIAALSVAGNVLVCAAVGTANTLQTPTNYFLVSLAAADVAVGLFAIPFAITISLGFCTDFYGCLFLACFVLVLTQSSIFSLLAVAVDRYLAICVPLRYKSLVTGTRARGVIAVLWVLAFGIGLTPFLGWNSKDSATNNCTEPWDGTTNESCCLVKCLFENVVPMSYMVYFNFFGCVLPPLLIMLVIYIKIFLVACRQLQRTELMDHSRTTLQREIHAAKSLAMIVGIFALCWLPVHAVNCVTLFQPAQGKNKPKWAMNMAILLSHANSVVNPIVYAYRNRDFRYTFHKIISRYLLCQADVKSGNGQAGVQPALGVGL
Test Name: Selectivity interaction (GloSensor assay) EUB0000234b ADORA2B
Result Type: EC50

The measured EC50 associated with "COc1cc(OC)cc(-c2noc(N3CCN(C)C4(CCN(c5ccnc(C)c5)CC4)C3)n2)c1" reads > 10 µM

---

Tgt: High affinity nerve growth factor receptor (Homo sapiens, UniProt P04629)
Sequence (P04629 whole entry): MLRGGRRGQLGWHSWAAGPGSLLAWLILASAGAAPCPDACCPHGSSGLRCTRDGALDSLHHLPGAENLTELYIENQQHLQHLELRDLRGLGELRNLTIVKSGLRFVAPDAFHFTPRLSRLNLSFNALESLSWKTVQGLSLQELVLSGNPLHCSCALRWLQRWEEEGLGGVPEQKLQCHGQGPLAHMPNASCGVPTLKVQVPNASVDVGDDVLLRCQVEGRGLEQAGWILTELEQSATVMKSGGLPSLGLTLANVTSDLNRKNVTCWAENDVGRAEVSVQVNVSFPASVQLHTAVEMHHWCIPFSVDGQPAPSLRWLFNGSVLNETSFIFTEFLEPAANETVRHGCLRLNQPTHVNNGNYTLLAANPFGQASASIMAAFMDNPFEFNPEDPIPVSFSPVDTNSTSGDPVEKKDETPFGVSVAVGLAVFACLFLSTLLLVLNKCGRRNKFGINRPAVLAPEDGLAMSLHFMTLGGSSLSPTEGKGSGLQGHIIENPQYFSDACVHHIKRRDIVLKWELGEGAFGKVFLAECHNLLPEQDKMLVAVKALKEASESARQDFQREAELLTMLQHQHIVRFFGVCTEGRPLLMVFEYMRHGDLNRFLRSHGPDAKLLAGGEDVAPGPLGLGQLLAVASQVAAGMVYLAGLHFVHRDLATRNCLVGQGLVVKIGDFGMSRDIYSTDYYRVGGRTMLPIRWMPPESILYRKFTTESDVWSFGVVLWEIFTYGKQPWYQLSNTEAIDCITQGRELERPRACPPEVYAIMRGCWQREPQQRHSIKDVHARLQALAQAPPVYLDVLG
Test Name: Selectivity interaction (KinomeScan (DiscoverX, competition-binding assay))
Result Type: Kd

The measured Kd associated with COc1ccc(COc2ccc(Cc3cnc(N)nc3N)cc2OC)cc1 [GW632580X] reads < 100 nM

---

Tgt: Phosphatidylinositol 4,5-bisphosphate 3-kinase catalytic subunit alpha isoform (Homo sapiens, UniProt P42336)
Test Name: Selectivity interaction (NanoBRET assay (HEK293T cells)) EUB0000312b PIK3CA
Result Type: IC50

The measured IC50 associated with "Cc1cnc(-c2cc(Cl)ccc2F)cc1-n1c(=O)n(CC(N)=O)c2cnccc21" reads > 20 µM

---

Tgt: Sodium/nucleoside cotransporter 2 (Homo sapiens, UniProt O43868)
Sequence (O43868 whole entry): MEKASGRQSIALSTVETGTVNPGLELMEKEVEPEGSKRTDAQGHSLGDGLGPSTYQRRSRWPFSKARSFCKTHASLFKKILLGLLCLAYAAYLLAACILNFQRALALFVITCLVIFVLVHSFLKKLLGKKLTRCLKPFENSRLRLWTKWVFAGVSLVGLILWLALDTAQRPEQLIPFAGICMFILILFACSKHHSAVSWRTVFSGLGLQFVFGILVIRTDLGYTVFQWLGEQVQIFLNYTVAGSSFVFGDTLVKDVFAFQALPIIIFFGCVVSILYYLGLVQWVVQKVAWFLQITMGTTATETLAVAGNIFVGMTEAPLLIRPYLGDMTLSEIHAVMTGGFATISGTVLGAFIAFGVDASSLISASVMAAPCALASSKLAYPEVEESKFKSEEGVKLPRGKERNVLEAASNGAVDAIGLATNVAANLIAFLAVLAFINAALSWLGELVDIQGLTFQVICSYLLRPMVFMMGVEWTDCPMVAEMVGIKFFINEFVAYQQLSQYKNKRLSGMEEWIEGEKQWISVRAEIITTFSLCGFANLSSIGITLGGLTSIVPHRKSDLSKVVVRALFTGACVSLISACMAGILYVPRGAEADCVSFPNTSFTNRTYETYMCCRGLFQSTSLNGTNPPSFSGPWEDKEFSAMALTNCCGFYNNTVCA
Test Name: Selectivity interaction (Enzyme panel (Eurofins-Panlabs enzyme assay)) EUB0000751a SLC28A2
Result Type: IC50 (nM)
Respond with the bare value in nM.

The measured IC50 associated with COCCOc1nc(-c2ccc(Cl)nc2)nc2c1CN(C(=O)c1ncn3ccccc13)CC2 [THPP-1] reads 1610

---

Tgt: Synaptic vesicular amine transporter (Homo sapiens, UniProt Q05940)
Sequence (Q05940 whole entry): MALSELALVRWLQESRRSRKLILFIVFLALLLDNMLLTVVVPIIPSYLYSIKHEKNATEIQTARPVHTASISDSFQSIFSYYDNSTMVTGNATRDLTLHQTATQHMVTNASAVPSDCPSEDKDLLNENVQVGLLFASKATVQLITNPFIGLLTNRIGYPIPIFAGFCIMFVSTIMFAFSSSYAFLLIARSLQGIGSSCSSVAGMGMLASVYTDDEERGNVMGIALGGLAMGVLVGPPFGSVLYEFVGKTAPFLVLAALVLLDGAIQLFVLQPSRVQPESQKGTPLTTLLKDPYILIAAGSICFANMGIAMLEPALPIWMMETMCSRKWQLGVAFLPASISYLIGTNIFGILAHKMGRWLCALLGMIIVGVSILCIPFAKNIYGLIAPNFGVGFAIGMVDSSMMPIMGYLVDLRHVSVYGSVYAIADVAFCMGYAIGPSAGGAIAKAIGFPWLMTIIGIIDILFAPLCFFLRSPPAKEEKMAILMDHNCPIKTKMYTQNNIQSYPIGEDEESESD
Test Name: Selectivity interaction (Enzyme and Receptor panel (MSD Pharma/Taiwan)) EUB0000750a SLC18A2
Result Type: IC50 (nM)
Respond with the bare value in nM.

The measured IC50 associated with O=S(=O)(NC1CCC(c2cc(F)ccc2F)(S(=O)(=O)c2ccc(Cl)cc2)CC1)C(F)(F)F (stereo unspecified) [MRK-560] reads 213

---

Tgt: Neutrophil collagenase (Homo sapiens)
Sequence (P22894 whole entry): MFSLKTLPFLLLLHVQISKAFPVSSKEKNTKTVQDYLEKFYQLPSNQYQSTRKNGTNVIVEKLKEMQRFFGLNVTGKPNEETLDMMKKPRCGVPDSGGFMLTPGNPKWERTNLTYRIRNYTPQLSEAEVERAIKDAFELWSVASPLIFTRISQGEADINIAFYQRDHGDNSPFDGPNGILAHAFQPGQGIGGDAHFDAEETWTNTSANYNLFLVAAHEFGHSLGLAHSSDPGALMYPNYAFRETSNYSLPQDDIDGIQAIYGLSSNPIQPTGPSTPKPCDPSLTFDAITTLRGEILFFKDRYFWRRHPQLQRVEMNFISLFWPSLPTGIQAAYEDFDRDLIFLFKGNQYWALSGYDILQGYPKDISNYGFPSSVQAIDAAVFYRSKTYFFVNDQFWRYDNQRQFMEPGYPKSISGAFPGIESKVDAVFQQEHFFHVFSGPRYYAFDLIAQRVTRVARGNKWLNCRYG
Test Name: Selectivity interaction (MMPs panel (FRET assay)) EUB0000730a MMP8
pIC50: −log10 of the molar value.
Result Type: pIC50

The measured pIC50 associated with "CCOC(=O)c1cc2cc(-c3cc(C(=O)NCc4ccc(C(=O)O)cc4)nn3C)ccc2[nH]1" reads < 4.66

---

Tgt: Dual specificity protein kinase CLK1 (Homo sapiens)
Sequence (P49759 whole entry): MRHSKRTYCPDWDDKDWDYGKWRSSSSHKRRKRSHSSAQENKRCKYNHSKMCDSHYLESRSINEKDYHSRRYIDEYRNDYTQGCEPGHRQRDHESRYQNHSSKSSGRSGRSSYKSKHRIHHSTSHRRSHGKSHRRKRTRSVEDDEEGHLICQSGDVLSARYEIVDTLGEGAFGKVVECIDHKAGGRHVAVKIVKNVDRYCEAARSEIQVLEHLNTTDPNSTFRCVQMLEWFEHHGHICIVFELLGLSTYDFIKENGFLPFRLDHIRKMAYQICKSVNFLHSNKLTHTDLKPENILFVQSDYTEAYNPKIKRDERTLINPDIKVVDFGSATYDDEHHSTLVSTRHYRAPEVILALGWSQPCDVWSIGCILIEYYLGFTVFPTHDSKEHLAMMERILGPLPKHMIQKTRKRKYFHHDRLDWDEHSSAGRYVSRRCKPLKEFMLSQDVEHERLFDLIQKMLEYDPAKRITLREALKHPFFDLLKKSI
Test Name: Selectivity interaction (Enzymatic assay) EUB0000609a CLK1
Result Type: pIC50
Scale: negative log10 of molar concentration, which is what pIC50 denotes.

The measured pIC50 associated with "COc1cc(N2CCC(O)CC2)ccc1Nc1cc(Nc2ccccc2S(=O)(=O)C(C)C)c2cc[nH]c2n1" reads 5.72

---

Tgt: Sigma non-opioid intracellular receptor 1 (Homo sapiens, UniProt Q99720)
Sequence (Q99720 whole entry): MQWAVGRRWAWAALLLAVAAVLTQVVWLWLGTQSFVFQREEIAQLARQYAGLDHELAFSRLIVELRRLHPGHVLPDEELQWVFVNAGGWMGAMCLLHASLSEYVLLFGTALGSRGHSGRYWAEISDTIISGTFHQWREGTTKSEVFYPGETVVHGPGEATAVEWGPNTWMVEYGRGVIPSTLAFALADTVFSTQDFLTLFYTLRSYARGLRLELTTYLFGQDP
Test Name: Selectivity interaction (GPCR panel (PDSP screen)) EUB0000308b SIGMAR1
Result Type: Ki

The measured Ki associated with "Clc1cccc(-c2nnnn2Cc2cccnc2)c1Cl" reads 505 nM

---

Tgt: Serine/threonine-protein kinase 17A (Homo sapiens)
Sequence (Q9UEE5 whole entry): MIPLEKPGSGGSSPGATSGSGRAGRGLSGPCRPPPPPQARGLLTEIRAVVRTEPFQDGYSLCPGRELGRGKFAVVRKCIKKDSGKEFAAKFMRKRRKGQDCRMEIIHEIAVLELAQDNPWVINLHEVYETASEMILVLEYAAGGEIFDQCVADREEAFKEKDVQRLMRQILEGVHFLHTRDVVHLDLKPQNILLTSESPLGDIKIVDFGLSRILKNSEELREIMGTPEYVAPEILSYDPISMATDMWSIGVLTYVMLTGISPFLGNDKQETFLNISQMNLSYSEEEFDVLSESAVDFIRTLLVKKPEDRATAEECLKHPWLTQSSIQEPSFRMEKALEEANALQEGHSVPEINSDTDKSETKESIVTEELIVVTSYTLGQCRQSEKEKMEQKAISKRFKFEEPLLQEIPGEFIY
Test Name: Selectivity interaction (KinomeScan (DiscoverX, competition-binding assay)) EUB0000305b STK17A
Result Type: pKd
Scale: negative log10 of molar concentration, which is what pKd denotes.

Record "C[C@H](c1ccnc(Nc2nc3ccc(-c4cc(N(C)C)ncn4)cc3[nH]2)c1)N1CCN(C(=O)CC(F)(F)F)CC1" ; system Serine/threonine-protein kinase 17A (Homo sapiens); pKd = 7.13

---

Tgt: Peregrin (Homo sapiens)
Sequence (P55201 whole entry): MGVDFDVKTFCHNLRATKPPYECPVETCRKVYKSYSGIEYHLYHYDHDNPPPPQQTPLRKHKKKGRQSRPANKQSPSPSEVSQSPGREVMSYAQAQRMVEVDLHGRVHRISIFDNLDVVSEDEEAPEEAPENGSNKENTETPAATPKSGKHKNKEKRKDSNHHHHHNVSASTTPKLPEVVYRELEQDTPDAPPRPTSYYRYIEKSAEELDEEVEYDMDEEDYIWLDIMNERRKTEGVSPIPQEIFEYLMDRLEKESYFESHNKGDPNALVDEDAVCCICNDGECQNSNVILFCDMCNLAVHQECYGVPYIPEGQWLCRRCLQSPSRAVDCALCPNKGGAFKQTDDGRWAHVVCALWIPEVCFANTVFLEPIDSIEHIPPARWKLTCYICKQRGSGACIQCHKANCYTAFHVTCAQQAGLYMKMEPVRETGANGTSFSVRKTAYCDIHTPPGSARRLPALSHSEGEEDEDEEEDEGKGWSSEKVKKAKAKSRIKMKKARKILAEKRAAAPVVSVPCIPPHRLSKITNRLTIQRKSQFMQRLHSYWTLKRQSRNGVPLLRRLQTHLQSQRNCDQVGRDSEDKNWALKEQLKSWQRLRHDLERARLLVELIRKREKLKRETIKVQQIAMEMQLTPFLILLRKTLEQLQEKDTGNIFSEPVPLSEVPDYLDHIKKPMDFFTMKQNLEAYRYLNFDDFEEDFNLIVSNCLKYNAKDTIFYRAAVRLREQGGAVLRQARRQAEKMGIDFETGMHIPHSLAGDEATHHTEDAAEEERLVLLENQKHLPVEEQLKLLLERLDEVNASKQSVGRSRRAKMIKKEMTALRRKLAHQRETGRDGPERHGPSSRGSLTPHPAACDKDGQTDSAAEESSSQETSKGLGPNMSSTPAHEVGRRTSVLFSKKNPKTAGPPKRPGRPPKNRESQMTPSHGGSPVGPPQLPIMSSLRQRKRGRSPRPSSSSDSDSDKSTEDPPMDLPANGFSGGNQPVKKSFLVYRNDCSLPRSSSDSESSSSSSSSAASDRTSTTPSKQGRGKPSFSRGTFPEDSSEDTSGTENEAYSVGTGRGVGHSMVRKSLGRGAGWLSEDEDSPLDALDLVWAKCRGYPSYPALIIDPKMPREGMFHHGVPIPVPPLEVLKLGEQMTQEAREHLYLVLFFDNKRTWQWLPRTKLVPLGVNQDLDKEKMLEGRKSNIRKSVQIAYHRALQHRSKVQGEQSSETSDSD
Test Name: Selectivity interaction (BROMOscan™ panel (DiscoverX)) EUB0000256b BRPF1
Result Type: pKi
Scale: negative log10 of molar concentration, which is what pKi denotes.

Record "CN1C[C@H](Nc2cnn(C)c(=O)c2Br)C[C@H](c2ccccc2)C1" ; system Peregrin (Homo sapiens); pKi = 6.85

---

Tgt: Histone-lysine N-methyltransferase SUV39H2 (Homo sapiens)
Sequence (Q9H5I1 whole entry): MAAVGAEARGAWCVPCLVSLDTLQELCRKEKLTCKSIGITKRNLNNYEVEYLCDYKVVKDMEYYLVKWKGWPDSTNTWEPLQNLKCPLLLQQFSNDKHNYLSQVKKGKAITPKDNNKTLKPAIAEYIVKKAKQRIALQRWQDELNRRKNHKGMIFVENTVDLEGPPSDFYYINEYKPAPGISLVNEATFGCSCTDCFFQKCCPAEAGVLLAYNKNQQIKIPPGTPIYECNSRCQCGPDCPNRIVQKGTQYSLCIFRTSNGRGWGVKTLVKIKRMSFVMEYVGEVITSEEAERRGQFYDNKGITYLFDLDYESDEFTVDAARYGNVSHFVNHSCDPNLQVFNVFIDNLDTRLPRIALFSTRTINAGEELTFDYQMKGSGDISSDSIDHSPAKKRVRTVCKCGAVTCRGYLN
Test Name: Selectivity interaction (HMT panel) EUB0000194b SUV39H2
Result Type: IC50

The measured IC50 associated with "COc1cc2c(NC3CCN(C(C)C)CC3)nc(N3CCC(F)(F)CC3)nc2cc1OCCCN1CCCC1" reads > 10 µM
